// values below are reported IC50
# System: Jurkat
# assay.comment: Antiproliferative activity against human Jurkat T cells after 48 hrs by MTT assay
# Assay type: functional, cell-based

smiles.repr	result
CC(C)(C)C(=O)N1[C@@H](COc2ccc([N+](=O)[O-])cc2)COC1(C)C	> 50 µM
CN1CCN(C(=O)c2ccc(OC[C@H]3COC(C)(C)N3C(=O)OC(C)(C)C)cc2)CC1	> 50 µM

Pending molecule:
Checklist item: IC50 tested on Jurkat, entry CC(C)(C)CC(=O)N1[C@@H](COc2ccc([N+](=O)[O-])cc2)COC1(C)C , value?
> 50 µM

Reference source for all entries: ChEMBL document CHEMBL4118074
